test: Stability of JAK3 covalent inhibitors in human whole blood; conditions: 1 μM, 37° C.
observable: Human blood stability t1/2

* C=CC(=O)N1C[C@H](Nc2ncnc3[nH]ccc23)CC[C@@H]1CO (single isomer, unassigned) [Example 7] | >5.558 h

Exercise: For the compound shown here, C=CC(=O)N1CC(Nc2ncnc3[nH]ccc23)CCC1CO (stereo not shown) , give the reported Human blood stability t1/2.
Solution: >5.558 h

Exercise: Quick one: Human blood stability t1/2 of C/C=C/C(=O)N1CCC[C@@H](Nc2ncnc3[nH]ccc23)C1 ?
Solution: >6 h

Exercise: Field request: Human blood stability t1/2 | item: C=CC(=O)N1C[C@H](Nc2ncnc3[nH]ccc23)CC[C@@H]1CO [Example 161]
Solution: >5.392 h

###

Biological target: UniProt P52333
Experiment: JAK Caliper Enzyme Assay at 4 μM or 1 mM ATP
Type: biochemical
Conditions: read-out: JAK3 (1 mM ATP) IC50; 1 mM ATP
Description: JAK Caliper Enzyme Assay at […] or 1 mM ATP Test article was solubilized in dimethyl sulfoxide (DMSO) to a stock concentration of 30 mM. An 11-point half log dilution series was created in DMSO with a top concentration of 600 μM. […] The compound plates were diluted 1 to 60 resulting in a top final assay compound concentration of 10 μM and a 2% DMSO concentration. Test article and assay controls were added to a 384-well plate. […]
observable: IC50 (nM)
Write it as a number; the unit nM goes unstated.

• C=CC(=O)N1CCC(Nc2cnc3[nH]cc(C(=O)NCC4(O)CCC4)c3n2)CC1 [Example 231] = 52.6
• C=CC(=O)N1CCC(Nc2cnc3[nH]cc(-c4ccc(F)nc4)c3n2)CC1 [Example 207] = 28.9
• C=CC(=O)N1CCC[C@@H](Nc2nc(Nc3cccnc3)nc3[nH]ccc23)C1 [Example 63] = 672
• C=CC(=O)N1CCC(Nc2cnc3[nH]cc(C(=O)NCC4CC(F)(F)C4)c3n2)CC1 [Example 238] = 9.3
• C=CC(=O)N1CCC(Oc2cnc3[nH]cc(-c4cncc(C#N)c4)c3n2)CC1 [Example 225] = 120
• C=CC(=O)N1CCC(Nc2cnc3[nH]cc(C(=O)NCC4(O)CCC(F)(F)CC4)c3n2)CC1 [Example 252b] = 40.6
• C=CC(=O)N1CCC(Nc2cnc3[nH]cc(C(=O)NCC4(O)CCCC4)c3n2)CC1 [Example 232] = 25
• C=CC(=O)N1CCC[C@@H](Nc2ncnc3[nH]cc(-c4cncc(F)c4)c23)C1 [Example 23] = 86.6
• C=CC(=O)N1CCC(Oc2cnc3[nH]cc(-c4c(C)noc4C)c3n2)CC1 [Example 224] = 1540
• C=CC(=O)N1CCC(Nc2cnc3[nH]cc(C(=O)NCC(C)CC(F)(F)F)c3n2)CC1 (centres unmarked) [Example 253] = 6.9

Exercise: Observed IC50 on UniProt P52333 for C=CC(=O)N1CCC(Oc2cnc3[nH]cc(-c4ccc(F)nc4)c3n2)CC1 [Example 226] , please.
Solution: 91

Exercise: Request body: readout IC50, system UniProt P52333, query C=CC(=O)N1CCN(c2cnc3[nH]cc(C(=O)NC(C)C)c3n2)[C@H](C)C1 [Example 307] . Return the value.
Solution: 128

###

molecular target: JAK3 enzyme (Homo sapiens (Human), UniProt P52333); experiment: JAK Caliper Enzyme Assay at 4 μM or 1 mM ATP; type: biochemical; details: read-out: JAK3 (4 μM ATP) IC50; 4 μM ATP
Sequence (P52333 whole entry, species assumed): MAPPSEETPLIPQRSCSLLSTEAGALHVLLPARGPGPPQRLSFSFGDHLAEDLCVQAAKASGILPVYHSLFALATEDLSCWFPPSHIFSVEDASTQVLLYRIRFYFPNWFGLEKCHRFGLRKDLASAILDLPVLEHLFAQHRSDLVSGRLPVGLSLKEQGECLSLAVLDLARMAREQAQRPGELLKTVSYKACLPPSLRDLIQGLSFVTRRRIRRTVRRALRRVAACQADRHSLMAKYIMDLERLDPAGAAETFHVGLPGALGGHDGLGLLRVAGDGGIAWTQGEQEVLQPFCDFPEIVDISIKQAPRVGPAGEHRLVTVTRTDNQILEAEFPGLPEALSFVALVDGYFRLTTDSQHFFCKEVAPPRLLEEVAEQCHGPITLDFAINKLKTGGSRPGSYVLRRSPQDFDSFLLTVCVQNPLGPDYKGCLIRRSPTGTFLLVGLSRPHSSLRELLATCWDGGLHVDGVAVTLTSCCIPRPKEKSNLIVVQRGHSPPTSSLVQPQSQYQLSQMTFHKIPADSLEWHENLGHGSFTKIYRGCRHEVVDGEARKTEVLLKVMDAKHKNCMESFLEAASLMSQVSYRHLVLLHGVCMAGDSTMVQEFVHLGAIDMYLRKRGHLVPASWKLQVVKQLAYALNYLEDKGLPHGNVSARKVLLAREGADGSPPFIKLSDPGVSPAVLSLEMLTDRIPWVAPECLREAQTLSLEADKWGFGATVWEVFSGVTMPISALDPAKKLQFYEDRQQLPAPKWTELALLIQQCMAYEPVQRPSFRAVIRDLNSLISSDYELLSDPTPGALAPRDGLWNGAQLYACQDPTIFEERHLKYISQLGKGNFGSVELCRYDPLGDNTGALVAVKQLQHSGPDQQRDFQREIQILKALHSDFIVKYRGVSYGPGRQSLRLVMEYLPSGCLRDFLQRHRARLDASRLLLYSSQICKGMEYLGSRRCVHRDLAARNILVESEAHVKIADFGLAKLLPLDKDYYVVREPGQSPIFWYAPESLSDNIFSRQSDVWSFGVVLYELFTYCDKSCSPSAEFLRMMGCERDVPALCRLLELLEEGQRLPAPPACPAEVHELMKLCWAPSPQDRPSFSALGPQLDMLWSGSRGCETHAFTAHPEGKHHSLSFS
Catalogue of IC50 values
Please respond with the number in nM and leave the unit unwritten.

Exercise: Request: IC50, test system JAK3 enzyme (Homo sapiens (Human), UniProt P52333), entry C=CC(=O)N1CCC[C@@H](N(C)c2ncnc3[nH]cc(CCOC)c23)C1 [Example 136]
Solution: 238

Exercise: IC50 of C=C(C)C(=O)N1CCC[C@@H](N2CC(C)c3c[nH]c4ncnc2c34)C1 (mixture of isomers) [Example 153] on JAK3 enzyme (Homo sapiens (Human), UniProt P52333)?
Solution: 9440

Exercise: Fill in the recorded IC50 for this molecule, with JAK3 enzyme (Homo sapiens (Human), UniProt P52333) as test system: C=CC(=O)N1CCC(Nc2cnc3[nH]cc(C(=O)NCCC#N)c3n2)CC1 [Example 261]
Solution: 0.2

Exercise: API: value(readout= IC50, system= JAK3 enzyme (Homo sapiens (Human), UniProt P52333), query= CC/C=C(\C#N)C(=O)N1CCC[C@@H](Nc2ncnc3[nH]ccc23)C1 [Example 99] )
Solution: 255

Exercise: Value wanted: IC50 (JAK3 enzyme (Homo sapiens (Human), UniProt P52333)) of entry C=CC(=O)N1CCC(Nc2cnc3[nH]cc(-c4cnc(N5CCOCC5)nc4)c3n2)CC1 [Example 208]
Solution: 5.9

Exercise: For JAK3 enzyme (Homo sapiens (Human), UniProt P52333), provide IC50 of C=CC(=O)N1CCC[C@@H](Nc2ccnc3[nH]cc(C)c23)C1 [Example 47] please.
Solution: 4

###

// reported IC50 per item
Molecular target: JAK3 enzyme (Homo sapiens (Human))
Assay: JAK Caliper Enzyme Assay at 4 μM or 1 mM ATP
Assay type: biochemical
Settings: read-out: JAK3 (1 mM ATP) IC50; 1 mM ATP
Method: JAK Caliper Enzyme Assay at […] or 1 mM ATP Test article was solubilized in dimethyl sulfoxide (DMSO) to a stock concentration of 30 mM. An 11-point half log dilution series was created in DMSO with a top concentration of 600 μM. […] The compound plates were diluted 1 to 60 resulting in a top final assay compound concentration of 10 μM and a 2% DMSO concentration. Test article and assay controls were added to a 384-well plate. […]
Lab book: enter the figure in nM, no units written.

* C=CC(=O)N1CCC(Nc2cnc3[nH]cc(-c4cnc(OC)nc4)c3n2)CC1 [Example 210] | 45.4

Now consider a different compound.
Exercise: What measured IC50 goes with C=CC(=O)N1CCC(Nc2cnc3[nH]cc(-c4cnc(N5CCOCC5)nc4)c3n2)CC1 [Example 208] ?
Solution: 576

###

biological target: JAK3 enzyme (Homo sapiens (Human), UniProt P52333); experiment: JAK Caliper Enzyme Assay at 4 μM or 1 mM ATP; type: biochemical; conditions: read-out: JAK3 (4 μM ATP) IC50
Each entry below carries its reported IC50.
Kindly answer with a numeric value in nM, unit omitted.

- C=CC(=O)N1CCC[C@@H](Nc2ccnc3[nH]cc(C#N)c23)C1: 0.2

Please look at the following compound next.
Exercise: Item under review: C=CC(=O)N1CCC[C@@H](Nc2ncnc3[nH]cc(-c4ccc(C(=O)NC5CC5)c(Cl)c4)c23)C1 . Reported IC50?
Solution: 24.1

###

# pIC50 annotations
Molecular target: JAK3 enzyme (Homo sapiens (Human))
Assay: JAK Caliper Enzyme Assay at 4 μM or 1 mM ATP
Type: biochemical
Details: read-out: JAK3 (4 μM ATP) IC50; 4 μM ATP
Procedure: JAK Caliper Enzyme Assay at […] or 1 mM ATP Test article was solubilized in dimethyl sulfoxide (DMSO) to a stock concentration of 30 mM. An 11-point half log dilution series was created in DMSO with a top concentration of 600 μM. […] The compound plates were diluted 1 to 60 resulting in a top final assay compound concentration of 10 μM and a 2% DMSO concentration. Test article and assay controls were added to a 384-well plate. […]
# pIC50 = -log10(concentration in molar units)

Example results:
• C=CC(=O)N1CCN(c2cnc3[nH]cc(C(=O)NC(C)C)c3n2)[C@@H](C2CC2)C1 = 8.30
• C=CC(=O)N1CCC(Nc2cnc3[nH]cc(C(=O)N[C@@H]4CC[C@H](F)C4)c3n2)CC1 = 9.52
• C=CC(=O)N1CCN(c2cnc3[nH]cc(C(=O)NC(C)C)c3n2)[C@@H](C(C)C)C1 = 7.92
• C=CC(=O)N1CCC[C@@H](Nc2ncnc3[nH]cc(C(=O)NC)c23)C1 = 6.95
• C=CC(=O)N1CCC(Nc2cnc3[nH]cc(-c4cncc(C#N)c4)c3n2)CC1 = 10.00

Exercise: Please look up its pIC50: C=CC(=O)N1CC[C@H]2CN(c3ncnc4[nH]ccc34)[C@H]2C1
Solution: 7.15

Exercise: Bench note: what pIC50 did C=CC(=O)N1CCC[C@@H](Nc2c(C#N)cnc3[nH]ccc23)C1 show?
Solution: 8.14

Exercise: I am curious: what pIC50 value has been reported for C/C=C\C(=O)N1CCC[C@@H](Nc2ncnc3[nH]ccc23)C1 ?
Solution: 6.45

###

molecular target: JAK3 enzyme (Homo sapiens (Human)); assay: JAK Caliper Enzyme Assay at 4 μM or 1 mM ATP; format: biochemical; settings: read-out: JAK3 (4 μM ATP) IC50; 4 μM ATP
observable: pIC50
# reply with the number alone; pIC50 is -log10 of concentration in mol/L

* C=CC(=O)N1CCC(Nc2cnc3[nH]cc(-c4ccc(S(C)(=O)=O)cc4)c3n2)CC1 | 8.70
* C=CC(=O)N1CCC[C@@H](Nc2ncnc3[nH]cc(CC(C)(C)O)c23)C1 | 8.40
* C=CC(=O)N1CC[C@H](F)[C@@H](Nc2ncnc3[nH]ccc23)C1 | 9.30
* C=CC(=O)N1CCN(c2cnc3[nH]cc(C(=O)NC(C)C)c3n2)[C@@H](CC)C1 | 8.30
* C=CC(=O)N1CCC[C@@H](Nc2ncnc3[nH]cc(C(=O)NCCO)c23)C1 | 6.84

Exercise: So what pIC50 did O=C(/C=C\CO)N1CCC[C@@H](Nc2ncnc3[nH]ccc23)C1 get with JAK3 enzyme (Homo sapiens (Human))?
Solution: 6.18
